The measurements presented in this section are drawn from patent US11707444B2.

system: SARS-CoV-2; assay: microbe, parasite or virus in culture; format: cell-based, SARS-CoV-2 (βCoV/KOR/KCDC03/2020); details: Severe acute respiratory syndrome coronavirus 2, Vero, read-out: IC50, antiviral activity against SARS-CoV-2
observed_property: IC50 (µM)

compound="CCC(CC)COC(=O)[C@H](C)N[P@](=O)(OC[C@H]1O[C@@](C#N)(c2ccc3c(N)ncnn23)[C@H](O)[C@@H]1O)Oc1ccccc1 [remdesivir, reference compound]" observed_property=IC50 observed_value=13.2
